TARGET UNDER TEST: KRas G12C (Homo sapiens, UniProt P01116, C118S/C51S/C80L/G12C)
ASSAY SUMMARY: KRas G12C Modification Assay (LCMS detection of covalent adduct)
Format: binding
ASSAY CONDITIONS: normalized percent of control; tested at 5 μM concentration for 3 hours
Description: A 10 μL aliquot of each protein solution was then transferred to a 384 well microtiter plate. Initial compound stocks were generated at fifty times their desired final assay concentration in DMSO. […] Final data analysis was a multistep process in the Spotfire® data analysis software package. Briefly, each protein mass was calculated as a percent of the total signal of that sample, that percentage was then normalized to the percentage of signal of the protein in the absence of reactive compounds. […]

{"COMPOUND": "C=CC(=O)N1CCN(c2nc(OC[C@@H]3CCCN3CC)nc3c2CCN(c2cccc4ccccc24)C3)C[C@@H]1CC#N", "POC": "C (“C”>50% POC)"}
{"COMPOUND": "C=CC(=O)N1CCN(c2nc(OC(C)CCN(C)C)nc3c2CCN(c2cc(O)cc4ccccc24)C3)CC1 (stereo not drawn)", "POC": "C (“C”>50% POC)"}
{"COMPOUND": "C=CC(=O)N1CCN(c2nc(OC[C@H]3CCCC(=O)N3)nc3c2CCN(c2cc(O)cc4ccccc24)C3)CC1 (single isomer, unassigned)", "POC": "C (“C”>50% POC)"}

====

Test system: NCI-H358 cells (express KRas G12C), Phospho-ERK
ASSAY SUMMARY: Cellular inhibition of KRas G12C: Phospho-ERK in NCI-H358 cells
Type: cell-based
ASSAY CONDITIONS: Homo sapiens, NCI-H358, 3 h, pERK(Thr202/Tyr204) normalized with GAPDH; NCI-H358 cells; 3 hours; read-out: IC50
List of IC50 values.

Completed entries (count: 10):
{"COMPOUND": "C=CC(=O)N1CCN(c2nc(OC[C@H]3CCC(=O)N3)nc3c2CCN(c2cc(O)cc4ccccc24)C3)CC1", "IC50": "> 1000 nM"}
{"COMPOUND": "C=CC(=O)N1CCN(c2nc(N3CCN(C)CC3)nc3c2CCN(c2cc(O)cc4ccccc24)C3)CC1", "IC50": "> 1000 nM"}
{"COMPOUND": "C=CC(=O)N1CCN(c2nc(OC[C@@H]3CCCN3C)nc3c2CCN(c2cccc4ccc(C)cc24)C3)C[C@@H]1CC#N", "IC50": "0.1 to 1000 nM"}
{"COMPOUND": "C=CC(=O)N1CCN(c2nc(OC[C@H]3CCCN3C)nc3c2CCN(c2cc(O)cc4ccccc24)C3)C[C@@H]1CC#N", "IC50": "0.1 to 1000 nM"}
{"COMPOUND": "C=CC(=O)N1CCN(c2nc(O[C@H](C)CN3CC[C@H](OC)C3)nc3c2CCN(c2cc(O)cc4ccccc24)C3)CC1", "IC50": "0.1 to 1000 nM"}
{"COMPOUND": "Cc1cccc(N2CCc3c(nc(OC[C@@H]4CCCN4C)nc3N3CCN(C(=O)/C=C/CN(C)C)[C@@H](CC#N)C3)C2)c1C", "IC50": "0.1 to 1000 nM"}
{"COMPOUND": "C=CC(=O)N1CCN(c2nc(OC[C@@H]3CCCN3C)nc3c2CCN(c2cccc(Cl)c2Cl)C3)C[C@@H]1CC#N", "IC50": "0.1 to 1000 nM"}
{"COMPOUND": "CN1CCC[C@H]1COc1nc2c(c(N3CCN(C(=O)OCc4ccccc4)C(CC#N)C3)n1)CCN(c1ncccc1C(F)(F)F)C2 (stereo partly drawn)", "IC50": "> 1000 nM"}
{"COMPOUND": "C=CC(=O)N1CC2(C1)CN(c1nc(OCCN(C)C)nc3c1CCN(c1cc(O)cc4ccccc14)C3)C2", "IC50": "> 1000 nM"}
{"COMPOUND": "C=CC(=O)N1CCN(c2nc(OCCN3CCCC[C@@H]3C)nc3c2CCN(c2cc(O)cc4ccccc24)C3)CC1", "IC50": "0.1 to 1000 nM"}

Give a short answer stating reported IC50 for `C=CC(=O)N1CCN(c2nc(OC[C@@H]3CCCN3C)nc3c2CCN(c2cc(O)cc4ccccc24)C3)C[C@@H]1CC#N` .
0.1 to 1000 nM

Give a short answer stating reported IC50 for `C=CC(=O)N1CCN(c2nc(OC[C@@H]3CCCN3C)nc3c2CCN(c2cccc4ccncc24)C3)C[C@@H]1CC#N` .
0.1 to 1000 nM

Give a short answer stating reported IC50 for C=CC(=O)N1CCN(c2nc(OC[C@@H]3CCCN3C)nc3c2CCN(c2cccc4cnccc24)C3)CC1CC#N (stereo partly drawn) .
> 1000 nM

Give a short answer stating reported IC50 for `C=CC(=O)N1CCN(c2nc(OCCN3CCCCC3)nc3c2CCN(c2cc(O)cc4ccccc24)C3)CC1` .
0.1 to 1000 nM

Give a short answer stating reported IC50 for `C=CC(=O)N1C[C@H](C)N(c2nc(OC[C@@H]3CCCN3C)nc3c2CCN(c2cccc4ccccc24)C3)C[C@@H]1CC#N` .
> 1000 nM

Give a short answer stating reported IC50 for C=CC(=O)N1CCN(c2nc(OC[C@@H]3C[C@@H](O)CN3C)nc3c2CCN(c2cccc4ccccc24)C3)CC1CC#N (stereo partly drawn) .
0.1 to 1000 nM

Give a short answer stating reported IC50 for C=CC(=O)N1CCN(c2nc(OC[C@H]3C[C@H](F)CN3C)nc3c2CCN(c2cccc(F)c2C(F)(F)F)C3)CC1CC#N (stereo partly drawn) .
0.1 to 1000 nM

Give a short answer stating reported IC50 for `CC#CC(=O)N1CCN(c2nc(OC[C@@H]3CCCN3C)nc3c2CCN(c2cccc4cccc(Cl)c24)C3)C[C@@H]1CC#N` .
0.1 to 1000 nM

Give a short answer stating reported IC50 for `C=CC(=O)N1CCN(c2nc(N3CC[C@H](N(C)C)C3)nc3c2CCN(c2cccc4ccccc24)C3)C[C@@H]1CC#N` .
0.1 to 1000 nM

Give a short answer stating reported IC50 for C=CC(=O)N1CCN(c2nc(OC[C@@H]3CCCC(=O)N3)nc3c2CCN(c2cc(O)cc4ccccc24)C3)CC1 (single isomer, unassigned) .
> 1000 nM

Give a short answer stating reported IC50 for `C=CC(=O)N1CCN(c2nc(OCCN(C)CCOC)nc3c2CCN(c2cc(O)cc4ccccc24)C3)CC1` .
> 1000 nM

Give a short answer stating reported IC50 for `C=CC(=O)N1CCN(c2nc(OC[C@@H]3CCCN3C)nc3c2CCN(c2cccc(C)c2Cl)C3)C[C@@H]1CC#N` .
0.1 to 1000 nM

Give a short answer stating reported IC50 for C=CC(=O)N1CCN(c2nc(OC[C@@H]3CCCN3C)nc3c2CCN(c2c(F)cccc2C(F)(F)F)C3)CC1CC#N (stereo partly drawn) .
0.1 to 1000 nM

Give a short answer stating reported IC50 for `C=CC(=O)N1CCN(c2nc(OC[C@@H]3CCCN3C)nc3c2CCN(c2cccc(F)c2Cl)C3)C[C@@H]1CC#N` .
0.1 to 1000 nM

Give a short answer stating reported IC50 for `C=CC(=O)N1CCN(c2ncnc3c2CCN(c2c(O)cccc2F)C3)CC1` .
> 1000 nM

Give a short answer stating reported IC50 for `C=CC(=O)N1CCN(c2nc(OC[C@@H]3CCCN3C)nc3c2CCN(c2cccc(Cl)c2C(F)(F)F)C3)C[C@@H]1CC#N` .
0.1 to 1000 nM

Give a short answer stating reported IC50 for `C=CC(=O)N1CCN(c2nc(OCCN(C)CCO)nc3c2CCN(c2cc(O)cc4ccccc24)C3)CC1` .
> 1000 nM
